# System: Hek293T
# assay explanation: Confirmatory qHTS for gynecologic anti-cancer compounds from libraries of approved drugs and bioactive compounds; also: nearly all actives have a fitted effect of over 55% in size; also: potency is read from the fitted curve at half-maximal effect
# condition summary: gynecologic cancer cell panel viability, ATPlite luminescence, 48 h; series mostly up to 57.6 µM
Records with an inconclusive call do not appear. Activity calls are given as the source filed them. Calls follow the shape of the dose curve; as a rule, active = well fitted cell-killing curve with a large enough effect; inconclusive = small, poorly fitted or top-dose-only effect, or effect the other way; inactive = no such curve, though single readings can be large or run the other way.
reported property: Potency

Example entries and their recorded answers appear below.
In [3]: df
Out[3]:
                                   compound  recorded_measurement
0  O=C(c1ccc(/C=C/c2n[nH]c3ccccc23)cc1)N1CCNCC1      21.7 µM (active)
1  CC(C)Oc1ccc(C(=O)NC(CNC(=O)CN(C)C)Cc2ccc(-c3cn4cccc(C(C)O)c4n3)cc2)cc1Cl (configuration not stated)              inactive
2  Cc1ccc(C(=O)Nc2ccc(CN3CCN(C)CC3)c(C(F)(F)F)c2)cc1C#Cc1cnc2[nH]ncc2c1      21.7 µM (active)
3  CN1C2CCC1CC(OC(=O)[C@H](CO)c1ccccc1)C2 (some centres not stated)              inactive
4  CC(Oc1cc(-n2cnc3ccc(CN4CCN(C)CC4)cc32)sc1C(N)=O)c1ccccc1C(F)(F)F (configuration not stated)      24.3 µM (active)

We now examine a further compound.
Identify Potency associated with the compound Cc1[nH]c2ccccc2c1CCNCc1ccc(/C=C/C(=O)NO)cc1
0.193 µM (active)

---

# System: Hek293T
# assay explanation: Confirmatory qHTS for gynecologic anti-cancer compounds from libraries of approved drugs and bioactive compounds; also: nearly all actives have a fitted effect of over 55% in size; also: potency is read from the fitted curve at half-maximal effect
# condition summary: gynecologic cancer cell panel viability, ATPlite luminescence, 48 h; series mostly up to 57.6 µM
Results filed as inconclusive are left out. The source made the active and inactive calls. Calls follow the shape of the dose curve; as a rule, active = well fitted cell-killing curve with a large enough effect; inconclusive = small, poorly fitted or top-dose-only effect, or effect the other way; inactive = no such curve, though single readings can be large or run the other way.
reported property: Potency

// solved cases for Potency follow
>>> print(df.to_string())
                                   compound  recorded_measurement
0  Cc1csc(NC(=O)c2sc3nc4c(c(C(F)(F)F)c3c2N)CCC4)n1     0.769 µM (active)
1  Cc1ccc(C(=O)Nc2cccc(C(F)(F)F)c2)cc1-c1ccc2nc(NCCN3CCOCC3)ncc2c1      19.3 µM (active)
2  CCN1CCN(Cc2ccc(Nc3ncc(F)c(-c4cc(F)c5nc(C)n(C(C)C)c5c4)n3)nc2)CC1              inactive
3  CCN1CCN(Cc2ccc(-c3cc4c(NC(C)c5ccccc5)ncnc4[nH]3)cc2)CC1 (centres undefined)      27.3 µM (active)
4  Cc1ccc(C(=O)Nc2ccc(CN3CCN(C)CC3)c(C(F)(F)F)c2)cc1C#Cc1cnc2cccnn12      17.2 µM (active)
5  O=c1[nH]c(=O)n([C@H]2C[C@H](O)[C@@H](CO)O2)cc1F      1.37 µM (active)
6  Cc1cc(Nc2nc(N[C@@H](C)c3ncc(F)cn3)ncc2Cl)n[nH]1              inactive
7  COc1cccc2c1C(=O)c1c(O)c3c(c(O)c1C2=O)C[C@@](O)(C(=O)CO)C[C@@H]3O[C@H]1C[C@H](N)[C@H](O[C@@H]2CCCCO2)[C@H](C)O1      10.9 µM (active)

Give reported Potency value for CS(=O)(=O)c1ccc(-c2cnc(N)c(C(=O)Nc3ccccc3)n2)cc1
inactive

---

# Test system: Hek293T
# assay explanation: Confirmatory qHTS for gynecologic anti-cancer compounds from libraries of approved drugs and bioactive compounds; also: nearly all actives have a fitted effect of over 55% in size; also: potency is read from the fitted curve at half-maximal effect
# condition summary: gynecologic cancer cell panel viability, ATPlite luminescence, 48 h; series mostly up to 57.6 µM
Records with an inconclusive call do not appear. Calls of active or inactive are those of the source. Calls follow the shape of the dose curve; as a rule, active = well fitted cell-killing curve with a large enough effect; inconclusive = small, poorly fitted or top-dose-only effect, or effect the other way; inactive = no such curve, though single readings can be large or run the other way.
Here, each record is paired with measured Potency data.

These solved cases illustrate the format of a correct answer.
In [3]: df
Out[3]:
                                   compound  reported_property  recorded_measurement
0  C[C@@H](Oc1cc(-c2cnn(C3CCNCC3)c2)cnc1N)c1c(Cl)ccc(F)c1Cl            Potency      21.7 µM (active)
1  COc1cc2c(NC3CCN(C(C)C)CC3)nc(C3CCCCC3)nc2cc1OCCCN1CCCC1            Potency      9.68 µM (active)
2  O=C1c2c(O)ccc(O)c2C(=O)c2c(NCCNCCO)ccc(NCCNCCO)c21            Potency     0.863 µM (active)

Specify Potency for CCC(=O)N1CCN(c2ccc(-n3c(=O)ccc4cnc5ccc(-c6cnc7ccccc7c6)cc5c43)cc2C(F)(F)F)CC1 and stop.
0.0498 µM (active)

Give the value of Potency reported for the following: Cc1ccc(C(=O)N(CCCN)C(c2nc3cc(Cl)ccc3c(=O)n2Cc2ccccc2)C(C)C)cc1 (centres undefined)
0.0061 µM (active)

Return reported Potency. Input compound: CCN(CC)CCOc1ccc(/C(=C(\Cl)c2ccccc2)c2ccccc2)cc1
126 µM (active)

Name the recorded Potency of the compound listed here: CNC(=O)c1nn(C)c2c1C(C)(C)Cc1cnc(Nc3ccc(N4CCN(C)CC4)cc3)nc1-2
4.32 µM (active)

Query Potency for CCOc1cc2ncc(C#N)c(Nc3ccc(F)c(Cl)c3)c2cc1NC(=O)/C=C/CN(C)C
15.3 µM (active)

Given CCC1C(=O)N(C)c2cnc(Nc3ccc(C(=O)NC4CCC(N5CCN(CC6CC6)CC5)CC4)cc3OC)nc2N1C(C)C (centres undefined) , respond with its Potency.
0.0611 µM (active)

---

# System: Hek293T
# assay explanation: Confirmatory qHTS for gynecologic anti-cancer compounds from libraries of approved drugs and bioactive compounds; also: nearly all actives have a fitted effect of over 55% in size
# condition summary: gynecologic cancer cell panel viability, ATPlite luminescence, 48 h; series mostly up to 57.6 µM
Records with an inconclusive call do not appear. Activity calls are given as the source filed them. Calls follow the shape of the dose curve; as a rule, active = well fitted cell-killing curve with a large enough effect; inconclusive = small, poorly fitted or top-dose-only effect, or effect the other way; inactive = no such curve, though single readings can be large or run the other way.
The reply should name one outcome from true = active, false = inactive

Here's what some known entries look like.
>>> print(df.to_string())
                                   molecule  qualitative_label
0  Cc1cc(Nc2nc(N[C@@H](C)c3ccc(F)cc3)c(C#N)cc2F)n[nH]1              false
1                CN(C)/N=N/c1nc[nH]c1C(N)=O              false
2  CS(=O)(=O)c1ccc(C(=O)Nc2ccc(Cl)c(-c3ccccn3)c2)c(Cl)c1              false
3  O=C(/C=C/c1cccc(S(=O)(=O)Nc2ccccc2)c1)NO               true
4  Cn1cc(-c2[nH]c3cc(NC(=O)[C@H](N)C4CCCCC4)cc4c3c2C=NNC4=O)cn1               true

Lab log entry: CC(C)(C(=O)NCC(F)(F)C(F)(F)F)C(=O)NC1C(=O)Nc2ccccc2-c2ccccc21 (stereo not given) — outcome as called in the assay?
false

Could you check what this test reported for Cc1ccc(C(=O)Nc2ccc(Oc3cc4cnn(C)c4cc3-c3cn[nH]c3)c(F)c2)c(=O)n1-c1ccc(F)cc1 ?
true

I'd appreciate the recorded outcome for CCN(CC)CCNC(=O)c1c(C)[nH]c(/C=C2\C(=O)Nc3ccc(F)cc32)c1C from this test.
true

Look up the recorded call for CCCCc1oc2ccccc2c1C(=O)c1cc(I)c(OCCN(CC)CC)c(I)c1 in this test.
true

Hi team, can someone confirm the assay call for CCS(=O)(=O)N1CCN(c2ccc(Nc3ncc(C(N)=O)c(NC4CC4)n3)cc2)CC1 ?
true

---

# Tested on: Hek293T
# assay explanation: Confirmatory qHTS for gynecologic anti-cancer compounds from libraries of approved drugs and bioactive compounds; also: nearly all actives have a fitted effect of over 55% in size; also: potency is read from the fitted curve at half-maximal effect
# condition summary: gynecologic cancer cell panel viability, ATPlite luminescence, 48 h; series mostly up to 57.6 µM
Inconclusive results are not listed. Active and inactive are the calls of the source. Calls come from the whole dose curve; as a rule, active = well fitted cell-killing curve with a large enough effect; inconclusive = small, poorly fitted or top-dose-only effect, or effect the other way; inactive = no such curve, though single readings can be large or run the other way.
reported property: Potency

Solved cases below.
>>> df
                                   compound  tested_on  reported_property  recorded_measurement
0          Cc1nc(N)nc(N)c1-c1ccc(Cl)c(Cl)c1    Hek293T            Potency      1.22 µM (active)
1  Cn1c(=O)c(-c2c(Cl)cccc2Cl)cc2cnc(Nc3cccc(C(=O)O)c3)nc21    Hek293T            Potency              inactive
2  CN1CCCC(n2nc(Cc3ccc(Cl)cc3)c3ccccc3c2=O)CC1 (stereo unspecified)    Hek293T            Potency      17.2 µM (active)
3  CC(C)C[C@H](NC(=O)[C@H](CCc1ccccc1)NC(=O)CN1CCOCC1)C(=O)N[C@@H](Cc1ccccc1)C(=O)N[C@@H](CC(C)C)C(=O)[C@@]1(C)CO1    Hek293T            Potency      3.43 µM (active)
4  CCc1cccc(CC)c1NC(=O)N1Cc2[nH]nc(NC(=O)c3ccc(N4CCN(C)CC4)cc3)c2C1    Hek293T            Potency              inactive

Give Potency for NC(=O)Nc1cc(-c2cccc(F)c2)sc1C(=O)NC1CCCNC1 (stereo unspecified) tested on Hek293T.
0.273 µM (active)

State recorded Potency with Hek293T, entry CCc1c2c(nc3ccc(O)cc13)-c1cc3c(c(=O)n1C2)COC(=O)[C@]3(O)CC , no comment.
0.611 µM (active)

GET Potency where system = Hek293T and item = Cc1ccccc1C(OCCN(C)C)c1ccccc1 (stereo unspecified)
inactive

With Hek293T as the test system, provide measured Potency for this compound: COc1cc2c(cc1-c1c(C)noc1C)ncc1[nH]c(=O)n(C(C)c3ccccn3)c12 (stereo unspecified)
inactive
